measurement_target: T1, Human soluble IL-6R (human, UniProt P08887 20-358)
T1 construct: Soluble recombinant form; biotinylated in some assays; also called hIL-6R; human IL-6R
T1 sequence (looked up): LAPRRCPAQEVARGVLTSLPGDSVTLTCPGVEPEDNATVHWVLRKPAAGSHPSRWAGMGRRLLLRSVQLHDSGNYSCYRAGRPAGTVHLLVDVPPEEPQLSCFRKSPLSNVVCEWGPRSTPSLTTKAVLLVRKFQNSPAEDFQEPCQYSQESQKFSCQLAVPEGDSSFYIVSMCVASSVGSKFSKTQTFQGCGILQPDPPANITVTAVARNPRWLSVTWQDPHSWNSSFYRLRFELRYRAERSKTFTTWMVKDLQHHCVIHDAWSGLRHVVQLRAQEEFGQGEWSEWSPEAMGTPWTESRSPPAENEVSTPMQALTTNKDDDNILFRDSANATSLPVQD
assay_protocol: Alphascreen IL-6/IL-6R competition (IL-6R 0.3 nM, bio-IL-6 3 nM); row EC50 of the fit table, axis [competitor], M; blocked ligand IL-6
Let's look at some binders and their measured IC50.
State the answer as a number, implicitly in nM.

IL6R74 (VHH) VHH: EVQLVESGGGLVQPGGSLRLSCAASGFTFDDYDIGWFRQAPGKGREGVSGISSSDGNTYYADSVKGRFTISSDNAKNTLYLQMNSLRPEDTAVYYCAAEPPDSSWYLDGSPEFFKYWGQGTLVTVSS | 0.133
IL6R73 (VHH) VHH: EVQLVESGGGLVQPGGSLRLSCAASGFTFDDYDIGWFRQAPGKGREGVSGISSSDGNTYYADSVKGRFTISRDNAKNTVYLQMNSLRPEDTAVYYCAAEPPDSSWYLDGSPEFFKYWGQGTLVTVSS | 0.0916

Now turn to the next binder.
// IC50 value for IL6R71 (VHH) VHH: EVQLVESGGGLVQPGGSLRLSCAASGFTFDDYDIGWFRQAPGKGREGVSGISSSDGNTYYADSVKGRFTISSDNAKNTVYLQMNSLRPEDTAVYYCAAEPPDSSWYLDGSPEFFKYWGQGTLVTVSS : 0.153
